- assay-explanation: M. tuberculosis growth inhibition, HTS (AID 449762);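 note: bacterial growth assessed after seven days of incubation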
- particulars: M. tuberculosis H37Rv growth inhibition, 7H9 media; at 25 µM; hits give high values
The campaign covered roughly 330,000 compounds. About 1,900 (0.58%) were called active. Inconclusive results (about 4%) are left out. A selection follows. Measured potencies and affinities stand elsewhere.
Answer each item with its documented inhibition.
Answers are plain numbers, in %.

Some entries whose results are on file:
| compound | inhibition, % |
| --- | --- |
| Cn1c(O)c(/C=N/N2CCCCC2)c(=O)[nH]c1=O | -3.56 |
| CC(C)C[C@H]1CNC(=O)C(=O)N1C[C@H](C)NC(=O)Cc1ccccc1 | -3.35 |
| CCN(C(=O)COC(=O)CNC(=O)c1sc2ccccc2c1Cl)C1CCCCC1 | 39.4 |
| O=C(CSc1nnnn1C1CCCC1)N1CCOCC1 | -0.48 |
| O=C(Nc1ccc2c(c1)OCO2)c1cccs1 | -1.92 |
| CCOC(=O)c1cnc(Nc2nc3ccccc3o2)nc1CSc1ncccn1 | 0.71 |
| CC(=O)c1c(C)[nH]c(C(=O)OCC(=O)NCc2cccs2)c1C | 7.06 |
| C/C(=N\NC(=O)c1cc2ccccc2cc1O)c1cccs1 | -0.54 |
| CCCCCC(=O)Nc1cccc(C2=NOC3(C2)C[C@@H](C(N)=O)N(C(=O)c2ccc(Cl)cc2)C3)c1 (stereo partly drawn) | -9.42 |
| CCCCNS(=O)(=O)c1ccc(NC(=O)Cc2ccc(OC)cc2)cc1 | -0.2 |

// each compound listed below needs its inhibition
1. Cc1ccc(C(=O)N2CCN(c3ccc(C(F)(F)F)cn3)CC2)cc1
2. C=CCSc1nn2c(=O)c3ccccc3nc2s1
3. COc1ccc(-n2c(C)cc(C(=O)COC(=O)Cn3cnc4ccccc43)c2C)cc1
4. CN(Cc1ccco1)C(=O)c1ccc(S(=O)(=O)N2CCCCCC2)cc1
5. C/C(=N/NC(=O)c1cc2ccccc2cc1O)c1ccco1
6. COc1ccccc1N1CCN(S(=O)(=O)CCNC(=O)CC2CCCCC2)CC1
7. Cc1cccc(C(=O)NNC(=O)c2ccccc2)c1
8. O=C(NCC1CCCO1)C(c1cccs1)N(Cc1cccs1)C(=O)c1ccc(-c2ccccc2)[nH]1 (stereo not drawn)

result:
1: -8.18; 2: 66.1; 3: 5.9; 4: 2.26; 5: 66.3; 6: -4.01; 7: -6.62; 8: 0.19
